Source: ChEMBL document CHEMBL1148747

Target: P2X purinoceptor 3 (Homo sapiens)
Sequence (whole entry): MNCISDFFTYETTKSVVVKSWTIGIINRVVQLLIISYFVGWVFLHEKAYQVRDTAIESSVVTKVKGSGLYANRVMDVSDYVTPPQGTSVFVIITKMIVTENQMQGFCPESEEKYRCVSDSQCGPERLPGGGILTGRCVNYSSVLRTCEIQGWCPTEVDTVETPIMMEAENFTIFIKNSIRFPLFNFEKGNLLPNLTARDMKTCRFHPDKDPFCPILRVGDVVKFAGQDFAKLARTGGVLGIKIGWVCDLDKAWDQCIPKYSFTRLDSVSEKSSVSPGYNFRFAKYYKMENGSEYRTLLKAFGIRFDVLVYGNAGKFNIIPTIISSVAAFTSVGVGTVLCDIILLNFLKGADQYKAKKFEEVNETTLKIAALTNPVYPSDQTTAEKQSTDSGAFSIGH
Assay: Antagonist activity at human recombinant P2X3 receptor expressed in Xenopus oocytes assessed as inhibition of ATP-induced ion current at 100 nM by two electrode voltage clamping technique
Settings: Oocyte
Value Type: inhibition (%)

Answered cases to consult:
H-LAVYPWT-OH : 48.4
H-LVAYPWT-OH : 53.4
H-LVVYPAT-OH : 17

P. H-LVVYPWT-OH [SPINORPHIN]
Q. H-LVVYAWT-OH
Between item P and item Q , which reported inhibition is smaller? Choose, then provide that item's label.
Q
(Q: 12.9%, P: 67.2%)

I. H-LVVAPWT-OH
II. H-AVVYPWT-OH
Of the two listed items, which has the higher inhibition? First: I Second: II Choose, then provide that item's label.
II

----------
target: P2X purinoceptor 3 (Homo sapiens) (UniProt P56373); test: Antagonist activity at human recombinant P2X3 receptor expressed in Xenopus oocytes assessed as inhibition of ATP-induced ion current at 10 uM by two electrode voltage clamping technique; type: functional, cell-based; conditions: Oocyte
Residues, ends and D or L forms follow the SMILES beside them.
Value Type: inhibition (%)

Answered cases to consult:
N[C@@H](Cc1ccc(O)cc1)C(=O)N1CCC[C@H]1C(=O)N[C@@H](Cc1c[nH]c2ccccc12)C(=O)O (H-Tyr-Pro-Trp-OH) : 15.6
C[C@@H](O)[C@H](NC(=O)[C@H](Cc1c[nH]c2ccccc12)NC(=O)[C@@H]1CCCN1C(=O)[C@@H](N)Cc1ccc(O)cc1)C(=O)O (H-YPWT-OH) : 13.3

1. C[C@@H](O)[C@H](NC(=O)[C@H](Cc1c[nH]c2ccccc12)NC(=O)[C@@H]1CCCN1)C(=O)O (H-Pro-Trp-Thr-OH)
2. CC(C)[C@H](N)C(=O)N[C@@H](Cc1ccc(O)cc1)C(=O)N1CCC[C@H]1C(=O)O (H-Val-Tyr-Pro-OH)
Between item 1 and item 2 , which reported inhibition is smaller? Choose, then provide that item's label.
2
(2: 16.2%, 1: 32.7%)

----------
target: P2X purinoceptor 3 (Homo sapiens, UniProt P56373); assay: Antagonist activity at human recombinant P2X3 receptor expressed in Xenopus oocytes assessed as inhibition of ATP-induced ion current in presence of 20 nM LVVYPWA peptide by two electrode voltage clamping technique; assay type: functional, cell-based, Oocyte
Value Type: IC50 (nM)
# output: bare number, implied unit nM

Return value of IC50 for input H-LVVYPWT-OH [SPINORPHIN] , no commentary.
0.0481
